biological target: p-AXL (Homo sapiens); assay: Axl phosphorylation inhibition ELISA in HEK293T cells transfected with NanoLuc-tagged AXL; conditions: 1 h compound incubation, media (OptiMEM)

{"columns": ["Smiles Repr", "IC50"],
 "data": [
  ["c1cnc(-c2ccc(-c3n[nH]c4ncc(-c5ccc6c(c5)CC[C@@H](N5C7COCC5C7)CC6)cc34)cc2)c(C2CCOCC2)c1", "< 100 nM"],
  ["c1cnc(-c2ccc(-c3c[nH]c4ncc(-c5ccc6c(c5)CC[C@@H](N5C7COCC5C7)CC6)cc34)cc2)c(C2CC2)c1", "< 100 nM"],
  ["FC(F)Oc1cccnc1-c1ccc(-c2n[nH]c3ncc(-c4ccc5c(c4)CC[C@@H](N4C6COCC4C6)CC5)cc23)cc1", "< 100 nM"],
  ["Cc1ccc(C)c(-c2ccc(-c3c[nH]c4ncc(-c5ccc6c(c5)CC[C@@H](N5CCCC5)CC6)cc34)cc2)n1", "100 to 1000 nM"],
  ["Cn1ncnc1-c1ccc(-c2n[nH]c3ncc(-c4ccc5c(c4)CC[C@@H](N4C[C@@H]6C[C@H]4CO6)CC5)cc23)cc1", "< 100 nM"],
  ["Cc1cccnc1-c1ccc(-c2c[nH]c3ncc(-c4ccc5c(c4)CC[C@@H](N4C6COCC4C6)CC5)cc23)cc1", "< 100 nM"]
]}

----------
target: p-AXL (Homo sapiens, UniProt P30530); assay: Axl phosphorylation inhibition ELISA in HEK293T cells transfected with NanoLuc-tagged AXL; settings: 1 h compound incubation, media (OptiMEM)
Sequence (P30530 26-894): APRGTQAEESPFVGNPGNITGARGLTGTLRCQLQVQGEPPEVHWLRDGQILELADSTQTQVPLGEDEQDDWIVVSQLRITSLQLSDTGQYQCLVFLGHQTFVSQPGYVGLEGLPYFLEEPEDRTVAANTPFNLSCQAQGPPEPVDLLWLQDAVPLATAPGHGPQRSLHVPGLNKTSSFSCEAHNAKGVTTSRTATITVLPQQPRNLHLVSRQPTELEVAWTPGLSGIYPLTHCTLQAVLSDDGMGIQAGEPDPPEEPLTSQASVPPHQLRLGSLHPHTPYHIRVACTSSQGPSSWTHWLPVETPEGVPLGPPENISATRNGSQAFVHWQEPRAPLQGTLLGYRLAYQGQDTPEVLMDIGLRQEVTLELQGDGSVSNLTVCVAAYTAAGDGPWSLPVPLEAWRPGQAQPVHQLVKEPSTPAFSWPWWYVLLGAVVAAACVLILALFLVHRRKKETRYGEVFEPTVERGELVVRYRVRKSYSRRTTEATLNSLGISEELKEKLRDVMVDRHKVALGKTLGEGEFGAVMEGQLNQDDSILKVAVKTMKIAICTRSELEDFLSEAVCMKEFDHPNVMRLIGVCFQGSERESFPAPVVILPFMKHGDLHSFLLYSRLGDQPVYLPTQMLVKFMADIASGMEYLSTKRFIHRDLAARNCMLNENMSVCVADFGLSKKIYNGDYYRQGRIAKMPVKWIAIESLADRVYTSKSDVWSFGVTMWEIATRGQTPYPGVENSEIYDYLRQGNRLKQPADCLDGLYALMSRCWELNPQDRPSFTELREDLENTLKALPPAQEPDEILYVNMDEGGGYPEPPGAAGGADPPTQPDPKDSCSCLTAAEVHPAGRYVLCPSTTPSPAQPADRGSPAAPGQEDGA
pIC50: −log10 of the molar value.

{"columns": ["Molecule", "pIC50"],
 "data": [
  ["c1cc(-c2ccc(-c3c[nH]c4ncc(-c5ccc6c(c5)CC[C@@H](N5C7COCC5C7)CC6)cc34)cc2)ccn1 [Example 41]", "6.00 to 7.00"],
  ["COc1ccnc(-c2ccc(-c3c[nH]c4ncc(-c5ccc6c(c5)CC[C@@H](N5C7COCC5C7)CC6)cc34)cc2)c1C [Example 86]", "6.00 to 7.00"],
  ["Cc1nccnc1-c1ccc(-c2c[nH]c3ncc(-c4ccc5c(c4)CC[C@@H](N4C6COCC4C6)CC5)cc23)nc1 [Example 54]", "> 7.00"],
  ["c1ccc(-c2ccc(-c3n[nH]c4ncc(-c5ccc6c(c5)CC[C@@H](N5C7COCC5C7)CC6)cc34)cc2)nc1 [Example 154]", "> 7.00"],
  ["CS(=O)(=O)c1cccnc1-c1ccc(-c2n[nH]c3ncc(-c4ccc5c(c4)CC[C@@H](N4C6COCC4C6)CC5)cc23)cc1 [Example 101]", "> 7.00"],
  ["Cc1cnc(-c2ccc(-c3n[nH]c4ncc(-c5ccc6c(c5)CC[C@@](C)(N5CCC[C@H]5C)CC6)cc34)nc2)c(C)n1 [Example 60]", "6.00 to 7.00"],
  ["Cc1ccc(C)c(-c2ccc(-c3n[nH]c4ncc(-c5ccc6c(c5)CC[C@@H](N5C[C@@H]7C[C@H]5CO7)CC6)cc34)cc2)n1 [Example 141]", "> 7.00"],
  ["Clc1cc(-c2c[nH]c3ncc(-c4ccc5c(c4)CC[C@@H](N4C6COCC4C6)CC5)cc23)ccc1-c1ccccn1 [Example 44]", "6.00 to 7.00"],
  ["Cc1ccc(C(C)(C)O)nc1-c1ccc(-c2n[nH]c3ncc(-c4ccc5c(c4)CC[C@@H](N4C6COCC4C6)CC5)cc23)cc1 [Example 192]", "6.00 to 7.00"],
  ["CCc1cccnc1-c1ccc(-c2n[nH]c3ncc(-c4ccc5c(c4)CC[C@@H](N4C6COCC4C6)CC5)cc23)cc1 [Example 182]", "> 7.00"],
  ["Cc1cnc(-c2ccc(-c3n[nH]c4ncc(-c5ccc6c(c5)CC[C@@H](N5C7COCC5C7)CC6)cc34)cc2)c(C)n1 [Example 190]", "6.00 to 7.00"],
  ["C[C@@H]1CCCN1[C@@]1(C)CCc2ccc(-c3cnc4[nH]nc(-c5ccc(-c6nccs6)cc5)c4c3)cc2CC1 [Example 91]", "6.00 to 7.00"],
  ["Cn1c(-c2ccc(-c3c[nH]c4ncc(-c5ccc6c(c5)CC[C@@H](N5C7COCC5C7)CC6)cc34)cc2)cccc1=O [Example 39]", "> 7.00"],
  ["Cc1ccc(C)c(-c2ccc(-c3c[nH]c4ncc(-c5ccc6c(c5)CC[C@@](C)(N5CCC[C@H]5C)CC6)cc34)cc2)n1 [Example 147]", "> 7.00"],
  ["Cc1nc(-c2ccc(-c3n[nH]c4ncc(-c5ccc6c(c5)CC[C@@H](N5C7COCC5C7)CC6)cc34)cc2)n(C)n1 [Example 23]", "> 7.00"],
  ["Cc1cnc(-c2ccc(-c3c[nH]c4ncc(-c5ccc6c(c5)CC[C@@](C)(N5CCC[C@H]5C)CC6)cc34)cc2)c(C)n1 [Example 57]", "> 7.00"],
  ["Cc1nccnc1-c1ccc(-c2n[nH]c3ncc(-c4ccc5c(c4)CC[C@@H](N4C6COCC4C6)CC5)cc23)nc1 [Example 55]", "> 7.00"],
  ["Cc1cnc(C)c(-c2ccc(-c3n[nH]c4ncc(-c5ccc6c(c5)CC[C@@](C)(N5CCC[C@H]5C)CC6)cc34)nc2)n1 [Example 61]", "> 7.00"],
  ["C[C@@H]1COC(=O)N1c1cccnc1-c1ccc(-c2n[nH]c3ncc(-c4ccc5c(c4)CC[C@@H](N4C6COCC4C6)CC5)cc23)cc1 [Example 124]", "> 7.00"],
  ["Cc1ccc(C#N)c(-c2ccc(-c3c[nH]c4ncc(-c5ccc6c(c5)CC[C@@H](N5C7COCC5C7)CC6)cc34)cc2)n1 [Example 72]", "6.00 to 7.00"],
  ["Cc1ncc(C)c(-c2ccc(-c3n[nH]c4ncc(-c5ccc6c(c5)CC[C@@H](N5C7COCC5C7)CC6)cc34)cc2)n1 [Example 122]", "> 7.00"],
  ["C[C@@H]1CCCN1[C@@]1(C)CCc2ccc(-c3cnc4[nH]nc(-c5ccc(-c6ncccc6C#N)cc5)c4c3)cc2CC1 [Example 66]", "> 7.00"],
  ["Cc1cccc(C#N)c1-c1ccc(-c2c[nH]c3ncc(-c4ccc5c(c4)CC[C@@H](N4C6COCC4C6)CC5)cc23)nc1 [Example 197]", "6.00 to 7.00"],
  ["CC(C)(O)c1cccnc1-c1ccc(-c2n[nH]c3ncc(-c4ccc5c(c4)CC[C@@H](N4C6COCC4C6)CC5)cc23)nc1 [Example 100]", "> 7.00"],
  ["Cn1nccc1-c1ccc(-c2n[nH]c3ncc(-c4ccc5c(c4)CC[C@@H](N4C6COCC4C6)CC5)cc23)cc1 [Example 109]", "> 7.00"],
  ["Cc1ccc(C#N)c(-c2ccc(-c3n[nH]c4ncc(-c5ccc6c(c5)CC[C@@H](N5C7COCC5C7)CC6)cc34)cc2)n1 [Example 70]", "> 7.00"]
]}

----------
molecular target: p-AXL (Homo sapiens); construct: expressed in transfected cells; host or cells: HEK293T; assay: Axl phosphorylation inhibition ELISA in HEK293T cells transfected with NanoLuc-tagged AXL; assay type: cell-based; conditions: 1 h compound incubation, media (OptiMEM)
pIC50: −log10 of the molar value.
Listed compounds paired with reported pIC50

{"columns": ["Compound", "pIC50"],
 "data": [
  ["CCOc1cccnc1-c1ccc(-c2n[nH]c3ncc(-c4ccc5c(c4)CC[C@@H](N4C6COCC4C6)CC5)cc23)cc1 [Example 181]", "6.00 to 7.00"],
  ["CN(C)C(=O)c1cccc(-c2ccc(-c3n[nH]c4ncc(-c5ccc6c(c5)CC[C@@H](N5C7COCC5C7)CC6)cc34)cc2)n1 [Example 94]", "6.00 to 7.00"],
  ["O=C1CCCN1c1cccnc1-c1ccc(-c2n[nH]c3ncc(-c4ccc5c(c4)CC[C@@H](N4C6COCC4C6)CC5)cc23)cc1 [Example 177]", "> 7.00"],
  ["Cc1cccnc1-c1ccc(-c2n[nH]c3ncc(-c4ccc5c(c4)CC[C@@H](N4C[C@@H]6C[C@H]4CO6)CC5)cc23)cc1 [Example 130]", "> 7.00"],
  ["c1ccc(-c2ccc(-c3c[nH]c4ncc(-c5ccc6c(c5)CC[C@@H](N5C7COCC5C7)CC6)cc34)cc2)nc1 [Example 155]", "6.00 to 7.00"]
]}

----------
target: recombinant human TYRO3 (Homo sapiens); assay: Biochemical potency, HTRF KinEASE-TK kinase assay; settings: 1 nM TYRO3, 700 μM ATP
Sequence (Q06418 41-890): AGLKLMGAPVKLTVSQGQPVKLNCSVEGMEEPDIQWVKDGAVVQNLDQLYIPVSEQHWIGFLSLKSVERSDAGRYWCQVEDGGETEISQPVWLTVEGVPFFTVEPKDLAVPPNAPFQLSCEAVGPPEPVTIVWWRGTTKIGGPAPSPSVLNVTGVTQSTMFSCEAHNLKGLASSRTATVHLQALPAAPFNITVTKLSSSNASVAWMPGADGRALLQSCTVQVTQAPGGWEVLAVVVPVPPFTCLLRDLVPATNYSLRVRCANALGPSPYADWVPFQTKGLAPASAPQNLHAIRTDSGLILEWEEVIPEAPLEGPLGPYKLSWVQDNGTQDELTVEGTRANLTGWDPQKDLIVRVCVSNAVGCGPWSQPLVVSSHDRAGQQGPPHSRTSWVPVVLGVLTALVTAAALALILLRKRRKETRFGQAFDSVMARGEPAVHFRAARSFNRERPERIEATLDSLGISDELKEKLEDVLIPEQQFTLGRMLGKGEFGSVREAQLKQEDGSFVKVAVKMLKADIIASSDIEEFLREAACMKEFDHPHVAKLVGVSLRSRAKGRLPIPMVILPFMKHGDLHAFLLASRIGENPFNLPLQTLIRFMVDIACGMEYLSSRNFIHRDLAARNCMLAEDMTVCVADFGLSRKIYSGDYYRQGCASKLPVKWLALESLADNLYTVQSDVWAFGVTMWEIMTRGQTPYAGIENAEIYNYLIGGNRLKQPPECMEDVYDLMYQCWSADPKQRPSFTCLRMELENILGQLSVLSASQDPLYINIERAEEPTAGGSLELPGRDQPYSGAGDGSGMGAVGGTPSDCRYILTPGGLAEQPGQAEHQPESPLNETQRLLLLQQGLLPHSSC
pIC50: −log10 of the molar value.
Recorded measurements of pIC50, one per entry

{"columns": ["Smiles Repr", "Study Target", "pIC50"],
 "data": [
  ["OC1(c2cccnc2-c2ccc(-c3c[nH]c4ncc(-c5ccc6c(c5)CC[C@@H](N5C7COCC5C7)CC6)cc34)cc2)CCC1", "recombinant human TYRO3 (Homo sapiens)", "> 7.00"],
  ["CN(C)C(=O)c1ccccc1-c1ccc(-c2c[nH]c3ncc(-c4ccc5c(c4)CC[C@@H](N4C6COCC4C6)CC5)cc23)cn1", "recombinant human TYRO3 (Homo sapiens)", "6.00 to 7.00"],
  ["N#Cc1cccnc1-c1ccc(-c2c[nH]c3ncc(-c4ccc5c(c4)CC[C@@H](N4C6COCC4C6)CC5)cc23)cc1", "recombinant human TYRO3 (Homo sapiens)", "6.00 to 7.00"],
  ["CO[C@H]1C[C@@H](N[C@H]2CCc3ccc(-c4cnc5[nH]nc(-c6ccc(-c7ncccc7C)cc6)c5c4)cc3CC2)C1", "recombinant human TYRO3 (Homo sapiens)", "> 7.00"],
  ["Cc1ccc(C)c(-c2ccc(-c3n[nH]c4ncc(-c5ccc6c(c5)CC[C@@H](N5C7COCC5C7)CC6)cc34)cc2)n1", "recombinant human TYRO3 (Homo sapiens)", "> 7.00"],
  ["Cc1ccnc(-c2ccc(-c3n[nH]c4ncc(-c5ccc6c(c5)CC[C@@H](N5C7COCC5C7)CC6)cc34)cc2)c1", "recombinant human TYRO3 (Homo sapiens)", "6.00 to 7.00"],
  ["c1cncc(-c2ccc(-c3c[nH]c4ncc(-c5ccc6c(c5)CC[C@@H](N5C7COCC5C7)CC6)cc34)cc2)c1", "recombinant human TYRO3 (Homo sapiens)", "< 6.00"],
  ["CS(=O)(=O)c1cccnc1-c1ccc(-c2c[nH]c3ncc(-c4ccc5c(c4)CC[C@@H](N4C6COCC4C6)CC5)cc23)cc1", "recombinant human TYRO3 (Homo sapiens)", "> 7.00"],
  ["FC(F)c1cccnc1-c1ccc(-c2n[nH]c3ncc(-c4ccc5c(c4)CC[C@@H](N4C6COCC4C6)CC5)cc23)cc1", "recombinant human TYRO3 (Homo sapiens)", "6.00 to 7.00"],
  ["CC(C)(O)c1cccnc1-c1ccc(-c2n[nH]c3ncc(-c4ccc5c(c4)CC[C@@H](N4C6COCC4C6)CC5)cc23)nc1", "recombinant human TYRO3 (Homo sapiens)", "6.00 to 7.00"],
  ["CC(C)(C#N)c1cccnc1-c1ccc(-c2c[nH]c3ncc(-c4ccc5c(c4)CC[C@@H](N4C6COCC4C6)CC5)cc23)cc1", "recombinant human TYRO3 (Homo sapiens)", "> 7.00"],
  ["COc1cc(-c2c[nH]c3ncc(-c4ccc5c(c4)CC[C@@H](N4C6COCC4C6)CC5)cc23)ccc1-c1ccccn1", "recombinant human TYRO3 (Homo sapiens)", "6.00 to 7.00"]
]}
